Tested on: ZEAMX (Corn, Field)
Test: Postemergence herbicidal evaluation
Assay type: in vivo, Zea mays
Conditions: postemergence, rate 0.0625 kg/ha
# ZEAMX herbicidal rating per entry
observation-type: ZEAMX herbicidal rating

[[record]]
compound = "CC1SC(=Nc2cc(N3C(=O)C4=C(CCCC4)C3=O)c(F)cc2Cl)N(C)C1=O (centres unmarked)"
reported_value = 3.5

[[record]]
compound = "CCOC(=O)CN1C(=O)C(F)SC1=Nc1cc(-n2c(=O)cc(C(F)(F)F)n(C)c2=O)c(F)cc1Cl (centres unmarked)"
reported_value = 7.5

[[record]]
compound = "CN1C(=O)C(F)SC1=Nc1cc(N2C(=O)C3=C(CCCC3)C2=O)c(F)cc1Cl (centres unmarked)"
reported_value = 4.0

[[record]]
compound = "COC(=O)CN1C(=O)CSC1=Nc1cc(-n2c(=O)cc(C(F)(F)F)n(C)c2=O)c(F)cc1Cl"
reported_value = 7.8

[[record]]
compound = "CCC1SC(=Nc2cc(-n3c(=O)cc(C(F)(F)F)n(C)c3=O)c(F)cc2Cl)N(C)C1=O (centres unmarked)"
reported_value = 5.3

[[record]]
compound = "CCOC(=O)CN1C(=O)C(CC)SC1=Nc1cc(-n2c(=O)cc(C(F)(F)F)n(C)c2=O)c(F)cc1Cl (centres unmarked)"
reported_value = 7.5

[[record]]
compound = "C=CCN1C(=O)C(CC(=O)NOC)SC1=Nc1cc(-n2c(=O)cc(C(F)(F)F)n(C)c2=O)c(F)cc1Cl (centres unmarked)"
reported_value = 7.5

[[record]]
compound = "CN1C(=O)C(CC(=O)NS(C)(=O)=O)SC1=Nc1cc(-n2c(=O)cc(C(F)(F)F)n(C)c2=O)c(F)cc1Cl (centres unmarked)"
reported_value = 4.0


====

Test system: CHEAL (Lambsquarters, Common)
Assay: Preemergence herbicidal evaluation
Assay type: in vivo, Chenopodium album
Conditions: rate 0.0313 kg/ha; rated 4-5 weeks after treatment
Reported Preemergence herbicidal rating CHEAL values for a set of compounds
observation-type: Preemergence herbicidal rating CHEAL

[[record]]
compound = "C=CCN1C(=O)C(CC(=O)Nc2ccccc2)SC1=Nc1cc(-n2c(=O)cc(C(F)(F)F)n(C)c2=O)c(F)cc1Cl (stereo not shown)"
system = "CHEAL (Lambsquarters, Common)"
observation_type = "Preemergence herbicidal rating CHEAL"
reported_value = 5.0

[[record]]
compound = "COC(=O)[C@H](Cc1ccc([N+](=O)[O-])cc1)N1C(=O)CSC1=Nc1cc(-n2c(=O)cc(C(F)(F)F)n(C)c2=O)c(F)cc1Cl"
system = "CHEAL (Lambsquarters, Common)"
observation_type = "Preemergence herbicidal rating CHEAL"
reported_value = 9.0

[[record]]
compound = "Cn1c(C(F)(F)F)cc(=O)n(-c2cc(/N=C3/SCC(=O)N3CC(=O)O)c(Cl)cc2F)c1=O"
system = "CHEAL (Lambsquarters, Common)"
observation_type = "Preemergence herbicidal rating CHEAL"
reported_value = 0.0

[[record]]
compound = "CCCCOC(=O)CN1C(=O)CSC1=Nc1cc(-n2c(=O)cc(C(F)(F)F)n(C)c2=O)c(F)cc1Cl"
system = "CHEAL (Lambsquarters, Common)"
observation_type = "Preemergence herbicidal rating CHEAL"
reported_value = 0.0


====

Tested on: ECHCG (Barnyardgrass)
Assay: Postemergence herbicidal evaluation
Type: in vivo, Echinochloa crus-galli
Details: postemergence, rate 0.0315 kg/ha
observation-type: ECHCG herbicidal rating

[[record]]
compound = "C=CCN1C(=O)CSC1=Nc1cc(-n2c(=O)cc(C(F)(F)F)n(C)c2=O)c(F)cc1Cl [Compound 27]"
reported_value = 2.0

[[record]]
compound = "CCOC(=O)CN1C(=O)C(=Cc2ccc(F)cc2)SC1=Nc1cc(-n2c(=O)cc(C(F)(F)F)n(C)c2=O)c(F)cc1Cl [Compound 21]"
reported_value = 2.0

[[record]]
compound = "CCOC(=O)CN1C(=O)C(=C(C)C)S/C1=N/c1cc(-n2c(=O)cc(C(F)(F)F)n(C)c2=O)c(F)cc1Cl [Compound 20]"
reported_value = 1.0

[[record]]
compound = "CCOC(=O)CN1C(=O)C(=C2CCCC2)SC1=Nc1cc(-n2c(=O)cc(C(F)(F)F)n(C)c2=O)c(F)cc1Cl [Compound 18]"
reported_value = 1.0

[[record]]
compound = "COC(=O)[C@H](Cc1ccc([N+](=O)[O-])cc1)N1C(=O)CSC1=Nc1cc(-n2c(=O)cc(C(F)(F)F)n(C)c2=O)c(F)cc1Cl [Compound 78]"
reported_value = 1.0


Each recorded value in this set is attributed to patent US20020137929A1.
